Molecular target: A-431 cell EGF receptor (Homo sapiens, UniProt P00533)
Construct: intact A-431 cell membranes were employed, rather than solubilized extracts; endogenous in cells; host or cells: A-431 human epidermoid carcinoma cells (plasma membranes)
Sequence (P00533 25-1210): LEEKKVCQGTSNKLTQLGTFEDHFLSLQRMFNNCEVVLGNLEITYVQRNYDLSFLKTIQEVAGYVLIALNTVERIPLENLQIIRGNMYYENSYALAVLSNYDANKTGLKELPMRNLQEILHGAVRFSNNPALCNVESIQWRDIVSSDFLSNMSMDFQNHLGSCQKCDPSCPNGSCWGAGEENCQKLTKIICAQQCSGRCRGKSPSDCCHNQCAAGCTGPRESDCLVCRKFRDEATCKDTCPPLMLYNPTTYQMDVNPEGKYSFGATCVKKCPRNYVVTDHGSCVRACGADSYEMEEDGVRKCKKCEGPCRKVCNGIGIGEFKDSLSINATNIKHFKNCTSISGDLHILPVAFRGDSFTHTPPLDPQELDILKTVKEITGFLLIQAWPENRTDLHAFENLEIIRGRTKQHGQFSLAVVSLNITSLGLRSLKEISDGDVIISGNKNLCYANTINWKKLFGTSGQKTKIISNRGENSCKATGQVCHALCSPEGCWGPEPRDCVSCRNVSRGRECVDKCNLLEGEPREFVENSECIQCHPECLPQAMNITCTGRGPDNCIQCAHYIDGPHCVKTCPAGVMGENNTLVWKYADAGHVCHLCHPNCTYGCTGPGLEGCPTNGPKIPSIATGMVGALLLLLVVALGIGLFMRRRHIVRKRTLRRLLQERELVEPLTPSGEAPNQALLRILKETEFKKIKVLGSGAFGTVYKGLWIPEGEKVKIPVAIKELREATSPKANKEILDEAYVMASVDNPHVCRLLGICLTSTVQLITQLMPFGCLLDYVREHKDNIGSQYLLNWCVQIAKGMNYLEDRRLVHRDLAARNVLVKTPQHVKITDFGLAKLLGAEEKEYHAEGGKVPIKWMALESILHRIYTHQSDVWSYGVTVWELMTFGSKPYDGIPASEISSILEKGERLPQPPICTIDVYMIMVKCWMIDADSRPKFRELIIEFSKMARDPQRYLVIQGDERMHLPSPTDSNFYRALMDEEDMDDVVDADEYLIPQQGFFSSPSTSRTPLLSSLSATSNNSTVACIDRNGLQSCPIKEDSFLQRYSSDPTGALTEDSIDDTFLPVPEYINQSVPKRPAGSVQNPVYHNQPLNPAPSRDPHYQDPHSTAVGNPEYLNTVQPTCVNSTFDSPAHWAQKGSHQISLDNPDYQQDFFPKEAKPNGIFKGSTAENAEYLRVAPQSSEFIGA
Experiment: Protein phosphorylation of A-431 cell membrane EGF receptors (intact membranes, EGF present)
Type: biochemical
Conditions: 600 nmoles/mg protein, intact A-431 membranes
Peptide text beside a SMILES is read from it. * marks the point of attachment. Cbz = O=C(OCc1ccccc1)*; CH2Cl = ClC*
Please provide measured % inhibition for the entries that follow.
# number only, unit % dropped from output

Qu. Please look up its % inhibition: CC(C)(C)OC(=O)N[C@@H](Cc1ccc(O)cc1)C(=O)CCl [Boc-TyrCH2 Cl]
Ans. 34

Qu. Entry under review: CC(C)(C)OC(=O)N[C@@H](Cc1ccc(O)cc1)C(=O)CBr [Boc-TyrCH2 Br] . Reported % inhibition?
Ans. 49

Qu. So what's the measured % inhibition for this one? CC(C)C[C@H](NC(=O)[C@H](C)NC(=O)[C@H](CO)NC(=O)[C@H](Cc1ccccc1)NC(=O)OCc1ccccc1)C(=O)CCl [Z--Phe-Ser-Ala-LeuCH2 Cl, Z-Phe-Ser-Ala-LeuCH2 Cl] (Cbz-FSAL-CH2Cl)
Ans. 44

====

Molecular target: p130^fps (UniProt P00530+P03323)
Construct: anti-gag serum and Staphylococcus protein A suspension (for FSV-transformed cells); viral gag-derived N-terminal portion (natural gag-fps fusion); expressed in transfected cells; immune complex with anti-gag serum and Staphylococcus protein A
Experiment: Casein phosphorylation by p130fps immunoprecipitates
Assay type: biochemical, Fujinami sarcoma virus (FSV)
Details: casein-phosphorylating activity of p130fps; concentration not given
Peptide text beside a SMILES is read from it. * marks the point of attachment. Cbz = O=C(OCc1ccccc1)*; CH2Cl = ClC*
observation type: Percent Inhibition
Please answer using a numeric value trailed by its unit.

Qu. What Percent Inhibition value was documented for this compound, CC(C)CC(NC(=O)C(CC(C)C)NC(=O)CNC(=O)C(Cc1ccccc1)NC(=O)OCc1ccccc1)C(=O)CCl (stereo not drawn) [Z--Phe-Gly-Leu-LeuCH2 Cl, Z-Phe-Gly-Leu-LeuCH2 Cl] (Cbz-FGLL-CH2Cl; configuration not given here) ?
Ans. 44%

Qu. Item under review: CC(=O)NC(Cc1ccccc1)C(=O)NCC(=O)NC(CCC(=O)O)C(=O)NC(CC(C)C)C(=O)CCl (stereo not drawn) [Ac-Phe-Gly-Glu-LeuCH2 Cl] (Ac-FGEL-CH2Cl; configuration not given here) . Reported Percent Inhibition?
Ans. 0%

Qu. Record request: Percent Inhibition value, item CC(C)C[C@H](NC(=O)[C@H](C)NC(=O)[C@H](Cc1ccccc1)NC(=O)[C@H](Cc1ccccc1)NC(=O)OCc1ccccc1)C(=O)CCl [Z--Phe-Phe-Ala-LeuCH2 Cl] (Cbz-FFAL-CH2Cl)
Ans. 11%

Qu. Name the recorded Percent Inhibition for CC(C)C[C@H](NC(=O)[C@@H]1CCCN1C(=O)CNC(=O)[C@H](Cc1ccccc1)NC(=O)OCc1ccccc1)C(=O)CCl [Z--Phe-Gly-Pro-LeuCH2 Cl] (Cbz-FGPL-CH2Cl) .
Ans. 7%

Qu. Percent Inhibition for CC(=O)NC(Cc1ccccc1)C(=O)NC(CCC(=O)O)C(=O)NC(C)C(=O)NC(CC(C)C)C(=O)CCl (stereo not drawn) [Ac-Phe-Glu-Ala-LeuCH2 Cl] (Ac-FEAL-CH2Cl; configuration not given here) ?
Ans. -1%
